# SYSTEM NAME: F876L mutant Androgen Receptor (AR-F876L) (Homo sapiens, UniProt P10275, F877L)
# Construct: expressed in transfected cells; host or cells: LNCaP
# Sequence (P10275 1-920 F877L): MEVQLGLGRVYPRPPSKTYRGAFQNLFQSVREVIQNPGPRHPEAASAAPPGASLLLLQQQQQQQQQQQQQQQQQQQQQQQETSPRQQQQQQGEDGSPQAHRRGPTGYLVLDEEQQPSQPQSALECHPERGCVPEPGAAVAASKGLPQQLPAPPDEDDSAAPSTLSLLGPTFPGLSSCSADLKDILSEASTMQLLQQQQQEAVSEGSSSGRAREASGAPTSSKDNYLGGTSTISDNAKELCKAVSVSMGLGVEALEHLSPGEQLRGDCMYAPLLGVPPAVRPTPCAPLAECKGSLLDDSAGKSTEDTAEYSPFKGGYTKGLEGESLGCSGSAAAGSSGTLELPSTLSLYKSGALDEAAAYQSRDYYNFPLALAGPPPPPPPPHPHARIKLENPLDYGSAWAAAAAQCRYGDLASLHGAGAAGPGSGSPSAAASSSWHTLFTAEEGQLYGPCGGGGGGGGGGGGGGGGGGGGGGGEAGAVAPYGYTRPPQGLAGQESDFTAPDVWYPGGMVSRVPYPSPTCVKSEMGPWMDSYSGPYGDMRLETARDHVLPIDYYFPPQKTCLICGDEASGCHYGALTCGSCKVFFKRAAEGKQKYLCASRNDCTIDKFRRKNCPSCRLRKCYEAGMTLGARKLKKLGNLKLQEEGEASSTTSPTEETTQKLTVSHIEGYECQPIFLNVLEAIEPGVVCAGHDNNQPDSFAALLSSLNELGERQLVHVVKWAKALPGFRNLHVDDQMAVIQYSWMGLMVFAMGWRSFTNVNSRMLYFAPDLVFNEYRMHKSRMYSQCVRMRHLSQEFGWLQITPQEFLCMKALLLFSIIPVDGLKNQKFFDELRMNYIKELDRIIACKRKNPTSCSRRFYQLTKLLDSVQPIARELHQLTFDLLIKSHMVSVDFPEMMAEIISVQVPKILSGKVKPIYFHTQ
# ASSAY SUMMARY: AR reporter assay, LNCaP-AR-F876L ANT (antagonist mode)
# Format: cell-based
Where a name gives a salt, the structure may show the parent alone.
Threshold-based label: IC50 under 80 nM gives YES, IC50 not under 80 nM gives NO.

Sample answers from the record:
Query string: IC50 under 80 nM? Item: CC1(C)C(=O)N(c2ccc(C#N)c(C(F)(F)F)c2)C(=S)N1c1ccc(OC2CCNCC2)nc1 [Compound 3, hydrochloride]
Result string: YES

Query string: IC50 under 80 nM? Item: CN1CCC(Oc2ccc(N3C(=S)N(c4ccc(C#N)c(Cl)c4)C(=O)C34CCC4)cn2)CC1 [Compound 24, hydrochloride]
Result string: YES

Query string: IC50 under 80 nM? Item: CN1CCC(Oc2ccc(N3C(=S)N(c4ccc(C#N)c(Cl)c4)C(=O)C3(C)C)cn2)CC1 [Compound 10, hydrochloride]
Result string: NO

Others:
Query string: IC50 under 80 nM? Item: CC1(C)C(=O)N(c2ccc(C#N)c(Cl)c2)C(=S)N1c1ccc(OC2CCNCC2)nc1 [Compound 9, hydrochloride]
Result string: YES

Query string: IC50 under 80 nM? Item: CN1CCC(Oc2ccc(N3C(=S)N(c4ccc(C#N)c(C(F)(F)F)c4)C(=O)C3(C)C)cn2)CC1 [Compound 4, hydrochloride]
Result string: NO

Query string: IC50 under 80 nM? Item: CC1(C)C(=O)N(c2ccc(C#N)c(C(F)(F)F)c2)C(=S)N1c1cnc(OC2CCNCC2)nc1 [Compound 5]
Result string: NO

Query string: IC50 under 80 nM? Item: CN1CCC(Oc2ccc(N3C(=S)N(c4ccc(C#N)c(C(F)(F)F)c4)C(=O)C34CCC4)cn2)CC1 [Compound 14]
Result string: YES
